- SYSTEM NAME: BRD4 (D1+D2) protein (Homo sapiens)
- Construct: purchased BPS 31044
- ASSAY: HTRF binding to BRD4 (D1+D2) protein
- SETUP CONDITIONS: BRD4(1,2), 2 h at room temperature, read-out: IC50 (μM), inhibitory activity on BRD4
I'd appreciate it if you could supply IC50 values for the items below.
Number only, in µM; omit the unit.

Data request: Query IC50 on BRD4 (D1+D2) protein (Homo sapiens) for `CCN(c1ccc(-n2ccnc2C)cc1)c1cc(-c2c(C)noc2C)ccc1C`
Data returned: 4.1

Data request: Query IC50 on BRD4 (D1+D2) protein (Homo sapiens) for `CCN(c1ccc(-n2ccnn2)c(Br)c1)c1cc(-c2c(C)noc2C)ccc1C`
Data returned: 1.9

Data request: Query IC50 on BRD4 (D1+D2) protein (Homo sapiens) for `CCN(c1ccc(F)c(-n2ccnc2)c1)c1cc(-c2c(C)noc2C)ccc1C`
Data returned: 6.7

Data request: Query IC50 on BRD4 (D1+D2) protein (Homo sapiens) for `CCN(c1ccc(-n2ccnc2)c(Br)c1)c1cc(-c2c(C)noc2C)ccc1C`
Data returned: 6.3

* * *

- SYSTEM NAME: androgen receptor (AR) (Homo sapiens)
- Construct: host or cells: HEK293
- Sequence (P10275 whole entry): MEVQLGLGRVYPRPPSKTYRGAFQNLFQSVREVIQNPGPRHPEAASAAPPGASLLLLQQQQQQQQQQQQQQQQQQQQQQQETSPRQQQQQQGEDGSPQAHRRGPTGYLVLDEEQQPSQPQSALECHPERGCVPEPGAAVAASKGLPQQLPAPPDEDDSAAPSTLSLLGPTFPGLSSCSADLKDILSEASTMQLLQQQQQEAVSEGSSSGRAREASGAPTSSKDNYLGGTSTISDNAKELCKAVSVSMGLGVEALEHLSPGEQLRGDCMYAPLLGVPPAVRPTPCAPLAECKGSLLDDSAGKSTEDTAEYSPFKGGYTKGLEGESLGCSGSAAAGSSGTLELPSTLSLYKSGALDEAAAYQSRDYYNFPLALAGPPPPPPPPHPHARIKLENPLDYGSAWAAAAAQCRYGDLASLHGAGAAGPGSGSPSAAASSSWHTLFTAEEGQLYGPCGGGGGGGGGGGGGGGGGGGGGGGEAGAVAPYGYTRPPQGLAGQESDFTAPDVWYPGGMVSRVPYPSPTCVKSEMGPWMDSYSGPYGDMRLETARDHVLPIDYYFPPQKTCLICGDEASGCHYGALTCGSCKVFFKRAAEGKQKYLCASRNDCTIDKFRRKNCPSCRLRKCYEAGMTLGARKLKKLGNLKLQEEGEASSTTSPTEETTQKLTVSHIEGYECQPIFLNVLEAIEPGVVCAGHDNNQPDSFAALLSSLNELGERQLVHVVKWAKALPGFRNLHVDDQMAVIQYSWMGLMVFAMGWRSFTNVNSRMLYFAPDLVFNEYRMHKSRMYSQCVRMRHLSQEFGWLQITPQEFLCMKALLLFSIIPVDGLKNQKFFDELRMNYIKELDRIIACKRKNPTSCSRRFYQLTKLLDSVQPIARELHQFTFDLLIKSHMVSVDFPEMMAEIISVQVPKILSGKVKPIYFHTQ
- ASSAY: Inhibitory activity on the function of androgen receptor (AR), luciferase reporter in transfected cells
- Assay type: cell-based
- SETUP CONDITIONS: transfected with AR and pGL4.36, testosterone 2 nM, Steady-Glo
I'd appreciate it if you could supply IC50 values for the items below.
Number only, in µM; omit the unit.

Data request: Entry `CCN(c1ccc(-n2ccnc2C)cc1)c1cc(-c2c(C)noc2C)ccc1C` has what IC50?
Data returned: 0.89

Data request: Entry `CCN(c1ccc(C#N)c(Cl)c1)c1cc(-c2c(C)nn(C)c2C)ccc1C` has what IC50?
Data returned: 0.78

Data request: Entry `CCN(c1ccc(Br)cc1)c1cc(-c2c(C)noc2C)ccc1C` has what IC50?
Data returned: 4.9

Data request: Entry `CCN(c1ccc(-c2c(C)noc2C)cc1)c1cc(-c2c(C)noc2C)ccc1C` has what IC50?
Data returned: 1.3

Data request: Entry `CCN(c1ccc(-n2ccnn2)c(Br)c1)c1cc(-c2c(C)noc2C)ccc1C` has what IC50?
Data returned: 1.7

Data request: Entry `CCN(c1ccc(-n2ccnc2)c(Br)c1)c1cc(-c2c(C)noc2C)ccc1C` has what IC50?
Data returned: 2.1

Data request: Entry `CCN(c1ccc(C2(C#N)CC2)cc1)c1cc(-c2c(C)noc2C)ccc1C` has what IC50?
Data returned: 1.6

* * *

- System: 22RV1 cells
- ASSAY: Inhibition of proliferation of other prostate cancer cells: 22RV1
- Type: cell-based
- SETUP CONDITIONS: Homo sapiens, same method as LNCaP/AR
RESULT TYPE: log10(IC50) (log10 of the value in µM)
Log scale reminder: IC50 in µM, then log10 taken.

Data request: Entry CCN(c1ccc(-c2nnco2)cc1)c1cc(-c2c(C)noc2C)ccc1C [Compound 129] has what log10(IC50)?
Data returned: 0.99

Data request: Entry CCN(c1ccc(C2(C#N)CC2)cc1)c1cc(-c2c(C)noc2C)ccc1C [Compound 111] has what log10(IC50)?
Data returned: -0.57

Data request: Entry CCN(c1ccc(-c2ccon2)cc1)c1cc(-c2c(C)noc2C)ccc1C [Compound 134] has what log10(IC50)?
Data returned: 0.78

Data request: Entry CCN(c1ccc(C#N)c(Cl)c1)c1cc(-c2c(C)nn(C)c2C)ccc1C [Compound 2] has what log10(IC50)?
Data returned: 0.72

Data request: Entry Cc1ccc(-c2c(C)noc2C)cc1Nc1ccc(Br)cc1 [Compound 120] has what log10(IC50)?
Data returned: -0.20

Data request: Entry CCN(c1ccc(OC)cc1)c1cc(-c2c(C)noc2C)ccc1C [Compound 101] has what log10(IC50)?
Data returned: -1.15

Data request: Entry CCN(c1ccc(-n2ccnc2)c(F)c1)c1cc(-c2c(C)noc2C)ccc1C [Compound 29] has what log10(IC50)?
Data returned: 0.75

Data request: Entry CCN(c1ccc(-n2cnnc2)cc1)c1cc(-c2c(C)noc2C)ccc1C [Compound 34] has what log10(IC50)?
Data returned: 0.41
